Test system: MDA-MB-468 breast
Test: NCI-60 one-dose screen, 48 h
Details: 10 µM unless noted
Compounds without any hit were thinned out: in the full panel of roughly 83,000, 20% have a hit. Active and inactive are the calls of the source. Rule for the calls: active = growth percent below 10; inactive = the rest.
Outcomes: active, inactive

* CCCCCCCCCCCC1CCCC(C)N1 (stereo not given) | inactive
* CC(=O)O[C@H](C[C@H](C(C)C)N(C)C(=O)[C@@H](NC(=O)[C@H]1CCCCN1C)C(C)C)c1nc(C(=O)N[C@@H](Cc2ccccc2)C[C@H](C)C(=O)O)c(CCOCc2ccccc2)s1 | active
* O=S(=O)(F)c1ccc(Cl)cc1 | inactive
* CN(Cc1cccnc1)N=O | inactive
* O=P1(NCCCl)OCCCN1CCCl (stereo not given) | inactive
* COC1OC(CO)C(O)C(O)[CH]1[Hg][O]C(C)=O (stereo not given) | inactive
* C[C@@H]1O[C@@H](O[C@H]2C[C@@H](O)[C@]3(CO)C4C(CC[C@]3(O)C2)[C@@]2(O)CC[C@H](C3=CC(=O)OC3)[C@@]2(C)C[C@H]4O)[C@H](O)[C@H](O)[C@H]1O (stereo not given in full) | active
* N#[N+]c1nc2nc(N)[nH]c(=O)c2[nH]1 | inactive
* O=C1CCC2(O)[C@@H]3Cc4ccc(O)c5c4[C@]2(CCN3Cc2ccoc2)C1O5 (stereo not given in full) | inactive
* O=C(O)CC(Br)C(=O)CBr (stereo not given) | inactive

###

System: MDA-MB-468 breast
Assay: NCI-60 one-dose screen, 48 h (100 = growth as untreated, 0 = no growth, -100 = all killed)
Conditions: 10 µM unless noted
The panel holds about 83,000 compounds, 20% with a hit somewhere; the sample as a whole holds those more often.
Categorized via growth: lo = under 40%, med = from 40% up to 90%, hi = 90% and over

- c1ccc(Nc2nc(-c3ccccc3)c[se]2)cc1: med
- O=C1C2CC=CCC2C(=O)N1SC(Cl)(Cl)Cl (stereo not given): hi
- C=CCn1cc(C=C2C(=O)N(C)C(=O)N(C)C2=O)c2ccccc21: lo
- C#CC1(O)CCC2(C)C(CCC3C4CCC(=O)C4(C)CCC32)C1 (stereo not given): med
- Nc1cc2nc3ccccc3nc2cc1N: lo
- COC[C@@H]1C[C@@]2(C)[C@@H](CC[C@@H]3[C@@H]2CC[C@@]2(C)[C@H]3CC[C@]2(C)O)CC1=O: hi
- CC[C@H](C)[C@H](NC(=O)c1ccccn1)C(=O)N(C)[C@H](C[C@@H](OC(C)=O)c1nc(C(=O)N[C@@H](Cc2ccccc2)C[C@H](C)C(=O)OC)cs1)C(C)C: lo
- NC1CN2CCC1CC2 (stereo not given): hi
- CCOC(=O)c1c(C)n(Cc2ccccc2)c2cc(CN(C)C)c(O)cc12: med

###

Tested on: MDA-MB-468 breast
Assay: NCI-60 one-dose screen, 48 h (100 = growth as untreated, 0 = no growth, -100 = all killed)
Conditions: 10 µM unless noted
Compounds without any hit were thinned out: in the full panel of roughly 83,000, 20% have a hit.
Known growth of a selection of compounds
quantity-name: growth (%)

- COc1ccc(C2SCC(=O)Nc3c2c(C)nn3-c2nc3ccc(C)cc3s2)cc1O (stereo unspecified): 23.4
- C[N+]1(C)CCCC1c1cccnc1 (stereo unspecified): 101
- Cc1ccccc1NC(=NCCCN1CC1)Nc1ccccc1C: 54.7
- c1ccc(CCN2CCCCC2Cc2ccccc2)cc1 (stereo unspecified): 103
- CC[C@H](C)[C@H](NC(=O)[C@H]1CCCCN1C)C(=O)N(C)[C@H](CCc1nc(C(=O)N[C@@H](Cc2ccccc2)C[C@H](C)C(=O)O)cs1)C(C)C: 36.1
- O=C(/C=C/c1ccc(F)cc1)c1nc2ccccc2n1Cc1ccc(F)cc1: -15.7
- O=C1NC(=S)NC(=O)C1=Cc1ccccc1: 117
- CC1=CC(=Nc2ccc(N(CCCl)CCCl)cc2)C=C(C)C1=O: -66.3
- CCn1cnc2c(Nc3cccc(Cl)c3)nc(N[C@@H]3CCCC[C@@H]3N)nc21: -22
- Cc1ccc(N)cc1[As]=[As]c1cc(N)ccc1C (stereo unspecified): -92.9
- ClCCN(CCCl)c1ccc(/C=N\N=C\c2ccc(N(CCCl)CCCl)cc2)cc1: 50

###

Tested on: IGROV1 ovarian
Assay: NCI-60 one-dose screen, 48 h (100 = growth as untreated, 0 = no growth, -100 = all killed)
Details: 10 µM
This is part of a sample that, as a whole, favours compounds with a hit. Of some 83,000 tested, about 20% had one in any assay.
Quick rule: growth of at least 50% means Met, below that means Not met.

• COc1cc2cc(C(=O)N3C[C@@H](CCl)c4c3cc(OC(=O)N3CCN(C)[C@@H]5CSSC[C@H]53)c3ccccc43)[nH]c2c(OC)c1OC = Not met
• C#CC[Se]C(=O)c1ccc(C(=O)[Se]CC#C)s1 = Met
• COc1ccc(OC)c(/C=C/C(=O)c2nc3ccccc3n2Cc2ccc(F)cc2)c1 = Not met
• COc1cc(OC)c(/C=C/C(=O)c2nc3ccccc3n2Cc2ccc(F)cc2)c(OC)c1 = Met
• CCOP(=O)(CC(F)(F)C(F)(F)F)OCC = Met
• O=C(/C=C/c1ccc(F)cc1)c1nc2ccccc2n1Cc1ccc(Br)cc1 = Not met

###

Test system: OVCAR-8 ovarian
Experiment: NCI-60 one-dose screen, 48 h
Settings: 10 µM
About 83,000 compounds went through this panel and 20% of them were active in at least one assay; those are over-represented in the sample as a whole. Calls of active or inactive are those of the source. Rule for the calls: active = growth percent below 10; inactive = the rest.
Outcomes: true = active, false = inactive

* COc1cc2cc(C(=O)N3C[C@@H](CCl)c4c3cc(OC(=O)N3CCN(C(=O)CCC(=O)N5CCN(C)CC5)[C@@H]5CSSC[C@@H]53)c3ccccc43)[nH]c2c(OC)c1OC | true
* Cc1c2oc3c(C)ccc(C(=O)N[C@@H]4C(=O)N[C@H](C(C)C)C(=O)N5CCC[C@H]5C(=O)N(C)CC(=O)N(C)[C@@H](C(C)C)C(=O)OC4C)c3nc-2c(C(=O)N[C@@H]2C(=O)N[C@H](C(C)C)C(=O)N3CC(=O)C[C@H]3C(=O)N(C)CC(=O)N(C)[C@@H](C(C)C)C(=O)OC2C)c(N)c1=O (some centres undefined) | true
* CC12OOC(C)(OO1)C2CCC(=O)NCCNc1ccnc2cc(Cl)ccc12 (centres undefined) | false
* O=C(/C=C/c1ccccc1Cl)c1nc2ccccc2n1Cc1ccc(F)cc1 | true
* CC[C@]12C=CCN3CC[C@@]4(c5ccc(OC)cc5N(C)[C@H]4[C@@](O)(C(=O)OC)[C@@H]1OC(=O)CCC[P+](c1ccc(C)cc1)(c1ccc(C)cc1)c1ccc(C)cc1)[C@@H]32 | true
* CC(C)N=C([Se])NC(=O)c1ccccc1 | true
* O=C(NC([Se])=NC1CCCCC1)c1ccccc1 | false
* O=C(/C=C/c1ccc(Cl)cc1Cl)c1nc2ccccc2n1Cc1ccc(F)cc1 | false
* COc1cc(OC)c(S(=O)(=O)N(CCCl)CCCl)cc1C(=O)/C=C/c1ccc(C)cc1 | false
* COC(=O)C[C@](O)(CCC(C)C)C(=O)O[C@H]1C(OC)=C[C@@]23CCCN2CCc2cc4c(cc2[C@@H]13)OCO4 | true
* O=C(NC([Se])=NC1CCCCC1)c1ccc2c(c1)OCO2 | false
* O=C(/C=C/c1ccc(Cl)cc1)c1nc2ccccc2n1Cc1ccc(F)cc1 | false
* CC1=C2C(=C[C@@](C)(COP(=O)(Oc3ccccc3)Oc3ccccc3)[C@@H]2O)C(=O)[C@@](C)(O)C12CC2 | true
* CCC[Se]C(=O)c1ccc(C(=O)[Se]CCC)s1 | true
* CC12OOC(C)(OO1)C2CCC(=O)NCCCNc1ccnc2cc(Cl)ccc12 (centres undefined) | false
* COC(=O)c1ccc(-n2cc(CCCN(CCNc3ccnc4cc(Cl)ccc34)C(=O)CCC(=O)O[C@@H]3O[C@@H]4OC5(C)CC[C@H]6[C@H](C)CC[C@@H]([C@H]3C)[C@@]46OO5)nn2)cc1 | false
* C#CCCCN(CCNc1ccnc2cc(Cl)ccc12)C(=O)CCC(=O)O[C@@H]1O[C@@H]2OC3(C)CC[C@H]4[C@H](C)CC[C@@H]([C@H]1C)[C@@]24OO3 | false
* O=C(NCCCCC(c1ccc(F)cc1)c1ccc(F)cc1)Nc1ccc([N+](=O)[O-])c(C(F)(F)F)c1 | true
* CC1=C(CCC=NNC(N)=O)C2=C(C)C3(CC3)[C@@](C)(O)C(=O)C2=C1 | true
* COc1cc2cc(C(=O)N3C[C@@H](CCl)c4c3cc(OC(=O)N3CCN(C)[C@@H]5CSSC[C@@H]53)c3ccccc43)[nH]c2c(OC)c1OC | true
* COc1cc2cc(C(=O)N3C[C@@H](CCl)c4c3cc(OC(=O)N3CCN(C)[C@@H]5CSSC[C@H]53)c3ccccc43)[nH]c2c(OC)c1OC | true
* C[C@H]1[C@@H](CC(=O)N[C@@H](Cc2coc3ccccc23)B(O)O)O[C@@H]2OC3(C)CC[C@H]4[C@H](C)CC[C@@H]1[C@@]24OO3 | true
* CC[C@]12C=CCN3CC[C@@]4(c5ccc(OC)cc5N(C)[C@H]4[C@@](O)(C(=O)OC)[C@@H]1OC(=O)CCCC[P+](c1ccc(OC)cc1)(c1ccc(OC)cc1)c1ccc(OC)cc1)[C@@H]32 | true
* C[C@H]1[C@H](OC(=O)CCC(=O)Nc2cnccn2)O[C@@H]2OC3(C)CC[C@H]4[C@H](C)CC[C@@H]1[C@@]24OO3 | false

All values here come from PubChem BioAssay (NCI).
